# Test system: U-251 cells
# experimental.details: MTS cytotoxicity assay, U-251
# Assay type: cell-based, human
# settings: Homo sapiens; U-251; 72 h incubation, MTS
quantity.measured: pIC50
Answers are plain numbers, as −log10 of the molar value.

Would you please look over these solved cases?
smiles.str: COc1ccccc1/C=C/c1nc(OS(=O)(=O)c2ccc(C)cc2)c2ccc(Cl)cc2n1
pIC50: 5.76
--
smiles.str: COc1ccccc1/C=C/c1nc(OS(=O)(=O)c2cc3c(cc2Br)OCO3)c2ccccc2n1
pIC50: 5.64

Could you now consider this next compound?
Form field pIC50, entry COc1ccccc1/C=C/c1nc(OS(=O)(=O)c2ccc(C)cc2)c2ccccc2n1 : 5.72
